B1: ATE1 (parent)
chain: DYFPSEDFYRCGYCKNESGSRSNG

- Variants of: B1
- protocol_text: protein stability index of a GFP-peptide fusion (GPS, HEK-293T) (PSI 1-6); higher = more stable;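 also: lentivirally expressed fusions sorted by FACS into six bins by GFP to DsRed ratio, PSI derived from sequencing read proportions per bin multiplied by bin number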
- details: c terminus: a fixed tail appended
measurement_name: protein stability index

Below are worked cases with known answers.
chain_sequence	protein stability index
DYFPSERFYRCGYCKNESGSRSNG [D7R]	1.93
DYFPSEDFYRCGYCKNESGERSNG [S20E]	2.5
DYQPSEDFYRCGYCKNESGSRSNG [F3Q]	3.12
DYFPSEDFYRCGYCKNESGQRSNG [S20Q]	1.94
NYFPSEDFYRCGYCKNESGSRSNG [D1N]	2
DYGPSEDFYRCGYCKNESGSRSNG [F3G]	3.35

Give protein stability index for all variants that follow.
1. DYFPSEDFYRCGYCCNESGSRSNG [K15C]
2. DYFPSEDIYRCGYCKNESGSRSNG [F8I]
3. DYFPSEDAYRCGYCKNESGSRSNG [F8A]

Outgoing:
1. 2.17
2. 2.35
3. 2.32
